- experiment: Competitive inhibition of bovine beta-glucosidase isolated from liver after 10 to 30 mins by Lineweaver-Burk plot analysis
- Set-up: species or system Bos taurus
pKi: −log10 of the molar value.
recorded_metric: pKi

# count of solved cases: 2
CCCCCCCSC1=N[C@H]2O[C@H](CO)[C@@H](O)[C@H](O)[C@H]2O1    3.51
O=C(NCCCCCCSC1=N[C@H]2O[C@H](CO)[C@@H](O)[C@H](O)[C@H]2O1)C12CC3CC(CC(C3)C1)C2    3.64

P. CCCCSC1=N[C@H]2O[C@H](CO)[C@@H](O)[C@H](O)[C@H]2O1
Q. OC[C@H]1O[C@@H]2N=C(SCc3ccccc3)O[C@@H]2[C@@H](O)[C@@H]1O
R. CCCCCCCCCCCCSC1=N[C@H]2O[C@H](CO)[C@@H](O)[C@H](O)[C@H]2O1
S. OCCCCCCCCCCCCCCCCSC1=N[C@H]2O[C@H](CO)[C@@H](O)[C@H](O)[C@H]2O1
Sort these compounds on pKi so the largest reading comes first. Output the labels ranked as instructed.
S, R, Q, P
(S: 4.92, R: 4.14, Q: 3.68, P: 3.24)

I. CCCCCCCCSC1=N[C@H]2O[C@H](CO)[C@@H](O)[C@H](O)[C@H]2O1
II. CCCCCCCCCCCCCCCCSC1=N[C@H]2O[C@H](CO)[C@@H](O)[C@H](O)[C@H]2O1
Which of the two items, I and II , has the greater recorded pKi? Your choice should be expressed through its label.
II
(II: 4.28, I: 3.55)

====

- System: Aspergillus niger
- experiment: Inhibition of Aspergillus niger amyloglucosidase at 2 mM after 10 to 30 mins by spectrophotometric analysis
Activity calls are given as the source filed them. No cut-off for these calls is given here.
recorded_metric: inhibition

O=C(NCCCCCCSC1=N[C@H]2O[C@H](CO)[C@@H](O)[C@H](O)[C@H]2O1)C12CC3CC(CC(C3)C1)C2    inactive
OC[C@H]1O[C@@H]2N=C(SCc3ccccc3)O[C@@H]2[C@@H](O)[C@@H]1O    inactive
CCCCCCCCCCCCSC1=N[C@H]2O[C@H](CO)[C@@H](O)[C@H](O)[C@H]2O1    inactive
OCCCCCCCCCCCCCCCCSC1=N[C@H]2O[C@H](CO)[C@@H](O)[C@H](O)[C@H]2O1    inactive

Name the recorded inhibition of the compound listed here: CCCCCCCSC1=N[C@H]2O[C@H](CO)[C@@H](O)[C@H](O)[C@H]2O1
inactive

Name the recorded inhibition of the compound listed here: CCCCSC1=N[C@H]2O[C@H](CO)[C@@H](O)[C@H](O)[C@H]2O1
inactive

Name the recorded inhibition of the compound listed here: OC[C@H]1O[C@@H]2NC(=S)O[C@@H]2[C@@H](O)[C@@H]1O
inactive

Name the recorded inhibition of the compound listed here: CCCCCCCCSC1=N[C@H]2O[C@H](CO)[C@@H](O)[C@H](O)[C@H]2O1
inactive

Name the recorded inhibition of the compound listed here: CCCCCCCCCCCCCCCCSC1=N[C@H]2O[C@H](CO)[C@@H](O)[C@H](O)[C@H]2O1
inactive

Name the recorded inhibition of the compound listed here: C=CCSC1=N[C@H]2O[C@H](CO)[C@@H](O)[C@H](O)[C@H]2O1
inactive

====

- experimental_system: Uncharacterized protein (Sus scrofa) (UniProt I3LIR5)
- Sequence (whole entry): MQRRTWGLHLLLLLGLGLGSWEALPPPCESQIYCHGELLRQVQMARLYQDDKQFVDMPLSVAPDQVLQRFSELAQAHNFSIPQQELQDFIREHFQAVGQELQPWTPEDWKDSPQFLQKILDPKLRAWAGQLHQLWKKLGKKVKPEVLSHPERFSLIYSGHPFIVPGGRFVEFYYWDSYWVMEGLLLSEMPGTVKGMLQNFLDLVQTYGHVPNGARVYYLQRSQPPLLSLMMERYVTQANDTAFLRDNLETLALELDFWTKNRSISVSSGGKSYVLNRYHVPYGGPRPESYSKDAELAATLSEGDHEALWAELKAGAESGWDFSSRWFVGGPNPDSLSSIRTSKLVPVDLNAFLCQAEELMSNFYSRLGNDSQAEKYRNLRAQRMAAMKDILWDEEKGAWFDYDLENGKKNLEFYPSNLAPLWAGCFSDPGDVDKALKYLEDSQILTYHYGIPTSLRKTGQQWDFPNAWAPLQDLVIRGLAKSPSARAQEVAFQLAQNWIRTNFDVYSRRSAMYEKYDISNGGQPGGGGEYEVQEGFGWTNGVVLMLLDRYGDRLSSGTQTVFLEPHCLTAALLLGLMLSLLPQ
- experiment: Inhibition of pig trehalase isolated from kidney using alpha,alpha'-trehalose as substrate at 2 mM after 10 to 30 mins by spectrophotometric analysis
The source made the active and inactive calls. The calls are words filed in the database; no cut-off is given here.
recorded_metric: inhibition

# count of solved cases: 8
OC[C@H]1O[C@@H]2NC(=S)O[C@@H]2[C@@H](O)[C@@H]1O    inactive
O=C(NCCCCCCSC1=N[C@H]2O[C@H](CO)[C@@H](O)[C@H](O)[C@H]2O1)C12CC3CC(CC(C3)C1)C2    inactive
CCCCCCCCCCCCCCCCSC1=N[C@H]2O[C@H](CO)[C@@H](O)[C@H](O)[C@H]2O1    inactive
OC[C@H]1O[C@@H]2N=C(SCc3ccccc3)O[C@@H]2[C@@H](O)[C@@H]1O    inactive
CCCCCCCSC1=N[C@H]2O[C@H](CO)[C@@H](O)[C@H](O)[C@H]2O1    inactive
CCCCSC1=N[C@H]2O[C@H](CO)[C@@H](O)[C@H](O)[C@H]2O1    inactive
CCCCCCCCSC1=N[C@H]2O[C@H](CO)[C@@H](O)[C@H](O)[C@H]2O1    inactive
CCCCCCCCCCCCSC1=N[C@H]2O[C@H](CO)[C@@H](O)[C@H](O)[C@H]2O1    inactive

Name the recorded inhibition of the molecule listed here: C=CCSC1=N[C@H]2O[C@H](CO)[C@@H](O)[C@H](O)[C@H]2O1
inactive

Name the recorded inhibition of the molecule listed here: OCCCCCCCCCCCCCCCCSC1=N[C@H]2O[C@H](CO)[C@@H](O)[C@H](O)[C@H]2O1
inactive

====

- experimental_system: Lysosomal acid glucosylceramidase (Homo sapiens)
- Sequence (whole entry): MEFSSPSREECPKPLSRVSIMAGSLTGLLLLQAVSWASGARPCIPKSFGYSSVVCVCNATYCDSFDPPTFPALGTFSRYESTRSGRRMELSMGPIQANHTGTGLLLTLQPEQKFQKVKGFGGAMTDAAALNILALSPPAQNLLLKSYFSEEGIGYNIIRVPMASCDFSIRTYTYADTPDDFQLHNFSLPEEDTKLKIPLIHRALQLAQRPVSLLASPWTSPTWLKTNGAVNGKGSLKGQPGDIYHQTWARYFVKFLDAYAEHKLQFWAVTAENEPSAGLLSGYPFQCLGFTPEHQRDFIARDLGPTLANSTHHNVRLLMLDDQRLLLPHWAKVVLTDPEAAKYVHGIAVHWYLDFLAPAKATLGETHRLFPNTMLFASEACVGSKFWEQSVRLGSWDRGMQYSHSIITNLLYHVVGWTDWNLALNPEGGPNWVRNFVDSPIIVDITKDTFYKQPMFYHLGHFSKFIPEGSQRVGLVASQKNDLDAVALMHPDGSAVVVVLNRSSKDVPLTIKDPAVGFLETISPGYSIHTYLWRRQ
- experiment: Inhibition of human beta-glucocerebrosidase at 100 uM relative to control
- condition_summary: values are per cent of control
recorded_metric: residual activity (%)

CCCCCCCCCCCCCCCCSC1=N[C@H]2O[C@H](CO)[C@@H](O)[C@H](O)[C@H]2O1    86

1. CCCCSC1=N[C@H]2O[C@H](CO)[C@@H](O)[C@H](O)[C@H]2O1
2. OCCCCCCCCCCCCCCCCSC1=N[C@H]2O[C@H](CO)[C@@H](O)[C@H](O)[C@H]2O1
Which entry shows the lesser value of residual activity here, 1 or 2 ? Your choice should be expressed through its label.
2
(2: 36%, 1: 92%)

====

- experimental_system: Lysosomal acid glucosylceramidase (Homo sapiens)
- Sequence (whole entry): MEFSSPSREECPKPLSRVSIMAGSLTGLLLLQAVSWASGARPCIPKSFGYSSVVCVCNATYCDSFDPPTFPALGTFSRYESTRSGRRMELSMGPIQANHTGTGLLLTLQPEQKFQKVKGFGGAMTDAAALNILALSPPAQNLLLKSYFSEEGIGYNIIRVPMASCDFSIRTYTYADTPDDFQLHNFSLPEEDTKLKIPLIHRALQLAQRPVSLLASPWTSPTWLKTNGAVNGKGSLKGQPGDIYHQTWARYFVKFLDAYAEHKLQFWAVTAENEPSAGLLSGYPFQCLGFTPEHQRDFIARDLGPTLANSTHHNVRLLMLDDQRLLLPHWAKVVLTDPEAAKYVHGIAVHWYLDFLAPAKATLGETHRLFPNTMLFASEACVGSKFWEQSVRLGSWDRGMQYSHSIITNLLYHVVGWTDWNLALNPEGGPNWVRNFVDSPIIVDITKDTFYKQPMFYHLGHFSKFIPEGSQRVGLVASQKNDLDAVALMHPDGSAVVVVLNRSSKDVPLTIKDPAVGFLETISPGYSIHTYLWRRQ
- experiment: Inhibition of human beta-glucocerebrosidase at 100 uM relative to control
- condition_summary: values are per cent of control
recorded_metric: residual activity (%)

CCCCCCCCCCCCSC1=N[C@H]2O[C@H](CO)[C@@H](O)[C@H](O)[C@H]2O1    87
O=C(NCCCCCCSC1=N[C@H]2O[C@H](CO)[C@@H](O)[C@H](O)[C@H]2O1)C12CC3CC(CC(C3)C1)C2    91
OC[C@H]1O[C@@H]2NC(=S)O[C@@H]2[C@@H](O)[C@@H]1O    99
C=CCSC1=N[C@H]2O[C@H](CO)[C@@H](O)[C@H](O)[C@H]2O1    97
CCCCCCCCSC1=N[C@H]2O[C@H](CO)[C@@H](O)[C@H](O)[C@H]2O1    91
CCCCCCCSC1=N[C@H]2O[C@H](CO)[C@@H](O)[C@H](O)[C@H]2O1    91
OC[C@H]1O[C@@H]2N=C(SCc3ccccc3)O[C@@H]2[C@@H](O)[C@@H]1O    88
